Ref: patent US20130251724A1

Molecular target: T1, Human OSM (human, UniProt P13725 26-221)
T1 construct: Recombinant human OSM; also called hOSM; human Oncostatin M
T1 sequence: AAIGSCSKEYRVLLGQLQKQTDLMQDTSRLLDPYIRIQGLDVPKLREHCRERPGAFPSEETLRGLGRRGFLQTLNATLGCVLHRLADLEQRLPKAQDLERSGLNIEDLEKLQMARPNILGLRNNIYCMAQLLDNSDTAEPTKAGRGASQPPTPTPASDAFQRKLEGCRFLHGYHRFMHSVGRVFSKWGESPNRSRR
Assay: SPR (ProteOn XPR36 or Biacore T100), captured supernatant, OSM as analyte
Readout kind: Kd (pM)

Binder	Measure unit	Test result
Pos 102 Pro (antibody, V domains shown, also called CDRH3 V102>P) VH: EVQLVESGGGLVQPGGSLRLSCAASGFTFSSYAMSWVRQAPGKGLEWVATISDGGSFTYYLDNVRGRFTISRDNAKNSLYLQMNSLRAEDTAVYYCARDVGHTTFWYFDPWGRGTLVTVSS VL: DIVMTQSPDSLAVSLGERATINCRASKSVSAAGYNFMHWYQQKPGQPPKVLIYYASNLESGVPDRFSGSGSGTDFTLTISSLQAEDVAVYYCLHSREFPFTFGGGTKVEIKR	pM	411
Pos 100C Phe (antibody, V domains shown, also called CDRH3 Y100C>F) VH: EVQLVESGGGLVQPGGSLRLSCAASGFTFSSYAMSWVRQAPGKGLEWVATISDGGSFTYYLDNVRGRFTISRDNAKNSLYLQMNSLRAEDTAVYYCARDVGHTTFWFFDVWGRGTLVTVSS VL: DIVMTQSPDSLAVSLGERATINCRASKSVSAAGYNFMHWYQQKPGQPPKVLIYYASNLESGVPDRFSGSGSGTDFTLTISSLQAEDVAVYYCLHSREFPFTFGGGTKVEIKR	pM	365
Pos 101 Glu (antibody, V domains shown, also called CDRH3 D101>E) VH: EVQLVESGGGLVQPGGSLRLSCAASGFTFSSYAMSWVRQAPGKGLEWVATISDGGSFTYYLDNVRGRFTISRDNAKNSLYLQMNSLRAEDTAVYYCARDVGHTTFWYFEVWGRGTLVTVSS VL: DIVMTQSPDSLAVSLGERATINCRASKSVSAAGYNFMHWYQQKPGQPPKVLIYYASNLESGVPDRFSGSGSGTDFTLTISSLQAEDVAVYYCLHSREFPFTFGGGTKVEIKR	pM	426
Pos 96 Lys (antibody, V domains shown, also called CDRH3 V96>K) VH: EVQLVESGGGLVQPGGSLRLSCAASGFTFSSYAMSWVRQAPGKGLEWVATISDGGSFTYYLDNVRGRFTISRDNAKNSLYLQMNSLRAEDTAVYYCARDKGHTTFWYFDVWGRGTLVTVSS VL: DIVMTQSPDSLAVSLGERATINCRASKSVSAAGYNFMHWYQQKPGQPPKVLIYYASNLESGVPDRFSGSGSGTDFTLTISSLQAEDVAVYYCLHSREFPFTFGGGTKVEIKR	pM	671
Pos 102 Phe (antibody, V domains shown, also called CDRH3 V102>F) VH: EVQLVESGGGLVQPGGSLRLSCAASGFTFSSYAMSWVRQAPGKGLEWVATISDGGSFTYYLDNVRGRFTISRDNAKNSLYLQMNSLRAEDTAVYYCARDVGHTTFWYFDFWGRGTLVTVSS VL: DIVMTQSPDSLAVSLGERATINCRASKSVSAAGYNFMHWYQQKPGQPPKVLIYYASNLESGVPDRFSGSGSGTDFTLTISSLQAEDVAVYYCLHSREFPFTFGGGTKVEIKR	pM	425
Pos 102 Leu (antibody, V domains shown, also called CDRH3 V102>L) VH: EVQLVESGGGLVQPGGSLRLSCAASGFTFSSYAMSWVRQAPGKGLEWVATISDGGSFTYYLDNVRGRFTISRDNAKNSLYLQMNSLRAEDTAVYYCARDVGHTTFWYFDLWGRGTLVTVSS VL: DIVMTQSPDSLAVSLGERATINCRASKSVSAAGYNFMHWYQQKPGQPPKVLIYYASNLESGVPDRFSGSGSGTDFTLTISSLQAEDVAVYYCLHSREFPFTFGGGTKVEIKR	pM	426
Pos 97 Cys (antibody, V domains shown, also called CDRH3 G97>C) VH: EVQLVESGGGLVQPGGSLRLSCAASGFTFSSYAMSWVRQAPGKGLEWVATISDGGSFTYYLDNVRGRFTISRDNAKNSLYLQMNSLRAEDTAVYYCARDVCHTTFWYFDVWGRGTLVTVSS VL: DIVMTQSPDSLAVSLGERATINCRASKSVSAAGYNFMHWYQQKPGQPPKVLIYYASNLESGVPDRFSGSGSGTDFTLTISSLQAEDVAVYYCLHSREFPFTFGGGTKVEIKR	pM	651
Pos 98 Gln (antibody, V domains shown, also called CDRH3 H98>Q) VH: EVQLVESGGGLVQPGGSLRLSCAASGFTFSSYAMSWVRQAPGKGLEWVATISDGGSFTYYLDNVRGRFTISRDNAKNSLYLQMNSLRAEDTAVYYCARDVGQTTFWYFDVWGRGTLVTVSS VL: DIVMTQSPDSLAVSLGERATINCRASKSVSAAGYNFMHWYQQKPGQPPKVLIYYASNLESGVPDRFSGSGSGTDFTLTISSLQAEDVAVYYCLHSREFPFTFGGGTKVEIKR	pM	729
Pos 96 Phe (antibody, V domains shown, also called CDRH3 V96>F) VH: EVQLVESGGGLVQPGGSLRLSCAASGFTFSSYAMSWVRQAPGKGLEWVATISDGGSFTYYLDNVRGRFTISRDNAKNSLYLQMNSLRAEDTAVYYCARDFGHTTFWYFDVWGRGTLVTVSS VL: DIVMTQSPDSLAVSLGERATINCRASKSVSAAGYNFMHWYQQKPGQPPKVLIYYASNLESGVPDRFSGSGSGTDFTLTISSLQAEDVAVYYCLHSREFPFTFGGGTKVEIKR	pM	610
Pos 100D Asp (antibody, V domains shown, also called CDRH3 F100D>D) VH: EVQLVESGGGLVQPGGSLRLSCAASGFTFSSYAMSWVRQAPGKGLEWVATISDGGSFTYYLDNVRGRFTISRDNAKNSLYLQMNSLRAEDTAVYYCARDVGHTTFWYDDVWGRGTLVTVSS VL: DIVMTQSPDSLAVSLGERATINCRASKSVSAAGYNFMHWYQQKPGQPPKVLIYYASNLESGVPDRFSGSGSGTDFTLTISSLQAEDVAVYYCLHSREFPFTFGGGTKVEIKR	pM	672
Pos 98 Phe (antibody, V domains shown, also called CDRH3 H98>F) VH: EVQLVESGGGLVQPGGSLRLSCAASGFTFSSYAMSWVRQAPGKGLEWVATISDGGSFTYYLDNVRGRFTISRDNAKNSLYLQMNSLRAEDTAVYYCARDVGFTTFWYFDVWGRGTLVTVSS VL: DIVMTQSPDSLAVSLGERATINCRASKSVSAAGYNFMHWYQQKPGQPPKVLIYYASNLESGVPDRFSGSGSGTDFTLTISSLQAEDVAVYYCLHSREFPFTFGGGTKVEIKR	pM	325
